# study.system: Laminin 421/521
# assay.method.text: phage display, NGS count
measured.quantity: Count

Below are worked cases with known answers.
| binder | Count |
| --- | --- |
| TFGSGRSMPIQY | 34 |
| WVAAERR | 115 |
| SLNTTWVSPMMK | 37 |
| HTQIHRL | 28 |
| QGWKDRLPIWRY | 29 |

[a] DRMYSTVPAEGL
[b] CSHHKLKQC
Lookup: Of a and b , which shows the smaller Count value? # answer = label of selected item
Found: a
